Data origin, for the record: paper PMC3252304

This listing pairs compounds with measured pIC50.
Target chain: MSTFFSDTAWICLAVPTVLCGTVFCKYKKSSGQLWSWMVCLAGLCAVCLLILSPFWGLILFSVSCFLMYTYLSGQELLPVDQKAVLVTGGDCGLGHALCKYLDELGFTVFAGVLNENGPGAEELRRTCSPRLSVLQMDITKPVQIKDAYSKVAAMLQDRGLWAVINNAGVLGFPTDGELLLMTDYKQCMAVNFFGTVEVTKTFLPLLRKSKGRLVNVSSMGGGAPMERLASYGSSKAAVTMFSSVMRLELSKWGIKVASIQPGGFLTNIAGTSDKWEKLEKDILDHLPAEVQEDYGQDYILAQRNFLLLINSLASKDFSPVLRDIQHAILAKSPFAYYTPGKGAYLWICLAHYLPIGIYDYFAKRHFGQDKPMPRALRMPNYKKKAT
pIC50: −log10 of the molar value.

compound: O=C(Nc1cccc(O)c1)c1nc2ccc(O)cc2s1 [Compound 18]
pIC50: 5.42
//
compound: O=C(c1ccc(O)cc1)c1nc2ccc(O)cc2s1 [Compound 14]
pIC50: 5.61
